Tested on: L6
Assay: Cytotoxicity against rat L6 cells assessed as reduction in cell viability measured after 72 hrs by Alamar blue based inverted microscopy analysis
Conditions: L6, 72 h, read-out: IC50
Mark each entry True if its IC50 sits below 7 µM, and False for all others.

# example entries with known answers
COc1ccc2c(c1OC)CO[C@@H]2[C@H]1c2c(cc3c(c2OC)OCO3)CCN1[C@@H](CN)c1cccnc1 = False
C[C@@H](CCCN=C=S)[C@H]1CC[C@H]2[C@@H]3CC[C@@H]4C[C@H](O)CC[C@]4(C)[C@H]3C[C@H](O)[C@]12C = True
C[C@@H](CCCN=C=S)[C@H]1CC[C@H]2[C@@H]3[C@H](O)C[C@@H]4C[C@H](O)CC[C@]4(C)[C@H]3C[C@H](O)[C@]12C = True
O=C(Cn1ccnc1[N+](=O)[O-])NCc1ccccc1 = False
CC(C)c1ccc2c(c1)CC[C@H]1[C@](C)(CN=C=S)CCC[C@]21C = False

Let's switch to this compound now.
query: Decide: IC50 of COc1ccc2c(c1OC)CO[C@@H]2[C@H]1c2c(cc3c(c2OC)OCO3)CCN1C(CN)c1ccccc1 (some centres not stated) strictly below 7 µM?
result: False

---

Experiment: Selectivity index, ratio of IC50 for rat L6 cells assessed as reduction in cell viability measured after 72 hrs by Alamar blue based inverted microscopy analysis to IC50 for Plasmodium falciparum NF54 measured after 24 hrs in presence of [3H] hypoxanthine by liquid scintillation counter analysis
Format: toxicity
Conditions: read-out: Ratio IC50
measurementName: selectivity ratio at 72 h

Some solved entries appear below for comparison.
COc1ccc2c(c1OC)CO[C@@H]2[C@H]1c2c(cc3c(c2OC)OCO3)CCN1C(CN=C=S)c1ccc2c(c1)Cc1ccccc1-2 (some centres undefined) = 1.5
COc1ccc2c(c1OC)CO[C@@H]2[C@H]1c2c(cc3c(c2OC)OCO3)CCN1[C@@H](CN=C=S)c1ccc(F)cc1 = 6.5
C[C@@H](CCCN=C=S)[C@H]1CC[C@H]2[C@@H]3CC[C@@H]4C[C@H](O)CC[C@]4(C)[C@H]3C[C@H](O)[C@]12C = 1.1

Query molecule follows.
query: Reported selectivity ratio at 72 h for COc1ccc2c(c1OC)CO[C@@H]2[C@H]1c2c(cc3c(c2OC)OCO3)CCN1C(CN)c1ccccc1 (some centres undefined) : what is it?
result: 6

---

Assay: Selectivity index, ratio of IC50 for rat L6 cells assessed as reduction in cell viability measured after 72 hrs by Alamar blue based inverted microscopy analysis to IC50 for bloodstream Trypanosoma brucei rhodesiense STIB900 assessed as parasite growth inhibition measured after 70 hrs by Alamar blue assay
Format: toxicity
Conditions: read-out: Ratio IC50
Entries annotated with measured selectivity ratio at 72 h
// print number alone

query: Reported selectivity ratio at 72 h for COc1ccc2c(c1OC)CO[C@@H]2[C@H]1c2c(cc3c(c2OC)OCO3)CCN1C(CN=C=S)c1ccc(C)cc1 (stereo partly specified) : what is it?
result: 0.5

query: Continue with COc1ccc2c(c1OC)CO[C@@H]2[C@H]1c2c(cc3c(c2OC)OCO3)CCN1[C@@H](CN)c1cccnc1
result: 3.7

query: Continue with COc1ccc2c(c1OC)CO[C@@H]2[C@H]1c2c(cc3c(c2OC)OCO3)CCN1C(CN)c1ccc(C)cc1 (stereo partly specified)
result: 24.4

query: Continue with C[C@@H](CCCN=C=S)[C@H]1CC[C@H]2[C@@H]3[C@@H](O)C[C@@H]4C[C@H](O)CC[C@]4(C)[C@H]3CC[C@]12C
result: 2.7

query: Continue with C[C@@H](CCCN=C=S)[C@H]1CC[C@H]2[C@@H]3CC[C@@H]4C[C@H](O)CC[C@]4(C)[C@H]3C[C@H](O)[C@]12C
result: 3.3

query: Continue with COc1ccc2c(c1OC)CO[C@@H]2[C@H]1c2c(cc3c(c2OC)OCO3)CCN1C(CN=C=S)c1ccc2c(c1)Cc1ccccc1-2 (stereo partly specified)
result: 0.6
